assay: Cmax in Sprague-Dawley rat at 20 mg/kg, po measured for 24 hrs; format: ADME, organism-based; conditions: in vivo
readout-kind: Cmax
# include the unit after the value

In: I'd like to know its Cmax. The compound in question is COc1cc(CC(=O)N2CCC(NC(=O)NCc3ccc(OC(F)(F)F)cc3)CC2)cc(OC)c1
Out: 359 ng/mL

---

test: Ratio of Cmax in kidney to plasma in C57BL/6J mouse at 20 mg/kg, po measured for 24 hrs; type: ADME, organism-based; conditions: kidney and plasma
Entries annotated with measured Kp at 24 h
The answer should be a number; do not append a unit.

In: Looking for the measured Kp at 24 h of CCC(=O)N1CCC(CNC(=O)NC2CCN(C(=O)Cc3cc(OC)cc(OC)c3)CC2)CC1 , can you help?
Out: 52.3

Continuing:
In: Kp at 24 h lookup needed for COc1cc(CC(=O)N2CCC(NC(=O)NCc3ccc(OC(F)(F)F)cc3)CC2)cc(OC)c1 , thanks.
Out: 9.43

---

target: Bifunctional epoxide hydrolase 2 (Mus musculus, UniProt P34914); experiment: biochemical
Sequence (P34914 whole entry): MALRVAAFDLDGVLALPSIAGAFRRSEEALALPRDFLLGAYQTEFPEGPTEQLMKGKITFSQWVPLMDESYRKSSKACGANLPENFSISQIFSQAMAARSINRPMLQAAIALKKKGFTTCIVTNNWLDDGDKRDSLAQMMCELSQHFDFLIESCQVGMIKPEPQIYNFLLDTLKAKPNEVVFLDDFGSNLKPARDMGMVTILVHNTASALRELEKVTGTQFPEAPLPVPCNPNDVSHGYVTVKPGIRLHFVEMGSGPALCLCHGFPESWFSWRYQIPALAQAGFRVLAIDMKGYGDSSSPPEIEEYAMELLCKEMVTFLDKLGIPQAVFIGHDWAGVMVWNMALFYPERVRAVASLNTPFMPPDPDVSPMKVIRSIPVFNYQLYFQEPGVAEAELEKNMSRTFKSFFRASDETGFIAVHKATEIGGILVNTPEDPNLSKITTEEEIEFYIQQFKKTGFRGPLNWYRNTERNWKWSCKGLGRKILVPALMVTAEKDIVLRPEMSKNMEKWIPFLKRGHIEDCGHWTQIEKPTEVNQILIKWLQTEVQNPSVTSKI
Description: Inhibition of C57BL/6J mouse brain sEH using 14,15-EET as substrate preincubated for 15 mins followed by substrate addition by HPLC-MS analysis
readout-kind: pIC50
Quick note: pIC50 values are minus log10 of concentrations in mol/L.

These recorded examples may help you get a feel for the data.
In: Requested field: pIC50. Item: CCC(=O)N1CCC(CNC(=O)NC2CCN(C(=O)Cc3cccc(NC(=O)Cc4ccccn4)c3)CC2)CC1
Out: 7.69

In: Consider the molecule CCC(=O)N1CCC(CNc2c(NC3CCN(C(=O)Cc4cc(OC)cc(OC)c4)CC3)c(=O)c2=O)CC1 and give its measured pIC50.
Out: 3.78

In: Consider the molecule shown here: COc1cc(CC(=O)N2CCC(NC(=O)NCC3CCOCC3)CC2)cc(OC)c1 What is its recorded pIC50?
Out: 7.73

---
In: Field request: pIC50 | item: COc1cccc(CC(=O)N2CCC(NC(=O)NCc3ccc(OC(F)(F)F)cc3)CC2)c1
Out: 9.27

In: Reported pIC50, molecule CCC(=O)N1CCC(CNC(=O)NC2CCN(C(=O)Cc3ccc4c(c3)OCO4)CC2)CC1 : ____
Out: 8.02

In: Please give the measured pIC50 for this molecule: CC(C)CNC(=O)NCCCC#Cc1ccc2c(c1)OCO2
Out: 7.66

In: Which pIC50 value is on record for CC(C)CNC(=O)N1CCC(NC(=O)Cc2ccc3c(c2)OCO3)CC1 ?
Out: 5.46
